# credit: patent US11058650B2

- system: hERG channel (Homo sapiens, UniProt Q12809)
- Construct: expressed in transfected cells; host or cells: HEK293
- Sequence (Q12809 whole entry): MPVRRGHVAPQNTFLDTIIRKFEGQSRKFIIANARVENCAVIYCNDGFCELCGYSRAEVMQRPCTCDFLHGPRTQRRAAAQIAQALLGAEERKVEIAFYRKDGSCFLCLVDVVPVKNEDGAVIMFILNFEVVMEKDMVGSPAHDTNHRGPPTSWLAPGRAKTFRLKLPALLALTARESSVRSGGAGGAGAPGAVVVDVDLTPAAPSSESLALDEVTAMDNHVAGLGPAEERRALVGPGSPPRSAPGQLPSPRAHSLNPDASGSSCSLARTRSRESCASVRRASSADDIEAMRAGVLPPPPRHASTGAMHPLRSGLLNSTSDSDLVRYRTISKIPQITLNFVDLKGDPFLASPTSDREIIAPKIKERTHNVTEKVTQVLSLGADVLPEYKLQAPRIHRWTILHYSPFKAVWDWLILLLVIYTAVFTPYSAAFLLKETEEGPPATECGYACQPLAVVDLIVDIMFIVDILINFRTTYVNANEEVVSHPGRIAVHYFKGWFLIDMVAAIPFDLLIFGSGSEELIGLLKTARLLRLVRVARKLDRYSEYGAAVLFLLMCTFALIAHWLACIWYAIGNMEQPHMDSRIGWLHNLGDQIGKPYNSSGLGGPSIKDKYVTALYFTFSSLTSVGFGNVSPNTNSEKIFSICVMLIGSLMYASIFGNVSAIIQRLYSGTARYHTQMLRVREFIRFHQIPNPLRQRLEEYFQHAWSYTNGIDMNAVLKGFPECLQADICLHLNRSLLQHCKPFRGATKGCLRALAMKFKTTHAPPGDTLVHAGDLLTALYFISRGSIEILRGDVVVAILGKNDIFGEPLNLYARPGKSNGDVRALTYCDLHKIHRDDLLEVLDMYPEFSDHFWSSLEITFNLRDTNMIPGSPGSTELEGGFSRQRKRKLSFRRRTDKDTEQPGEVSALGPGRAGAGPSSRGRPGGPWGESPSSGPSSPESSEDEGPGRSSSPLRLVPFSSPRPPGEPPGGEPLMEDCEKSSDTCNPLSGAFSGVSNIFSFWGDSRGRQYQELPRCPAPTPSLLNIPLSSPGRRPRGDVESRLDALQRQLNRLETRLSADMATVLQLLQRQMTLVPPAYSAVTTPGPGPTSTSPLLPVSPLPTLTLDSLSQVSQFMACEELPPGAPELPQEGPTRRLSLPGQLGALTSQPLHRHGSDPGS
- protocol.description: hERG channel functional assay (FluxOR thallium fluorescence)
- Format: cell-based
- protocol.conditions: human, HEK293 cells expressing the hERG channel, pH 7.4, probe FluxOR fluorescent dye / thallium ions; HEK-293 cells expressing hERG, standard control inhibitors, unit M
assay.readout: IC50 at 30 min (µM)

[[record]]
compound = "CC(C)COCC(CN(Cc1ccccc1)c1ccccc1)N1CCCC1 (stereo not shown) [bepridil, reference compound]"
unit_info = "µM"
result = 2.2


====

- system: CYP2C9 (Homo sapiens, UniProt P11712)
- Sequence (P11712 whole entry): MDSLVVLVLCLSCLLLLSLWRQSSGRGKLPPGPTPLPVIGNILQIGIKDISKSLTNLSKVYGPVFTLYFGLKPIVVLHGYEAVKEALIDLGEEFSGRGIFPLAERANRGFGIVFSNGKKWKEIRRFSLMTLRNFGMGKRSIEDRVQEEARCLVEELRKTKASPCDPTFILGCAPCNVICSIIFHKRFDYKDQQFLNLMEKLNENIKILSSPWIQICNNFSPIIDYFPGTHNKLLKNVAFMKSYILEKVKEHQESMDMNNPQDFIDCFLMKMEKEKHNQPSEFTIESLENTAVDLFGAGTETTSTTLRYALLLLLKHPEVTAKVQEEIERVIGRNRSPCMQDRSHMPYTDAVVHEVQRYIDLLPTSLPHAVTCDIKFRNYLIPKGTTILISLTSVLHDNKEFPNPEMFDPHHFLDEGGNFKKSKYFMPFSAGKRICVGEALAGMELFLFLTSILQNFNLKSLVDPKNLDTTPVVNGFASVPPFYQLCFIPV
- protocol.description: P450 cytochrome inhibition fluorometric assay CYP2C9
- Type: in vitro ADME
- protocol.conditions: fluorometric assay, maximum dose 105 μM; read-out: CYP2C9 IC50
- Protocol: However, most human CYPs tolerate acetonitrile. […] OLHHA was tested in triplicate.
pIC50: −log10 of the molar value.
assay.readout: pIC50

[[record]]
compound = "CCCCCCCC/C=C\\CCCCCCCC(=O)NC(C)Cc1ccc(O)c(O)c1 (stereo not shown)"
system = "CYP2C9 (Homo sapiens, UniProt P11712)"
result = 5.17

